The values you see were collected from PubChem BioAssay (NCI).

# System: HS 578T breast
# protocol text: NCI tumour cell line growth inhibition, 48 h
measurement label: TGI

compound	assay system	TGI
Cc1cn(C2CC(O)C(COC(N)=O)O2)c(=O)[nH]c1=O (stereo not given)	HS 578T breast	> 100 µM
COc1cc(NCCC2CCCCN2)c2ncccc2c1OC (stereo not given)	HS 578T breast	31.1 µM
CC(=O)O[C@H]1CC[C@]2(C)C3C(=O)C[C@]4(C)[C@@H](C(C)CCC(=O)O)CC[C@@]4(C)[C@@H]3CC[C@H]2C1(C)C (stereo not given in full)	HS 578T breast	39.5 µM
CC1N=C(c2ccccc2)OC1=O (stereo not given)	HS 578T breast	> 100 µM

# next compound below
GET /values?readout=TGI&item= CCC(C)C(=O)OC1CCC=C2C=CC(C)C(CCC3CC(O)CC(=O)O3)C21 (stereo not given)
17.4 µM

---

# Tested on: SF-268 CNS
# protocol text: NCI tumour cell line growth inhibition, 48 h
measurement label: TGI

Answered cases to consult:
compound	measurement label	result
O=Cc1ccc(-c2ccc(S(=O)(=O)O)cc2)o1	TGI	> 100 µM
Nc1no[n+]([O-])c1-c1nnc2c(n1)-c1ccccc1C2=O	TGI	17.3 µM
S=C1Cc2c(-c3ccccc3)cc(-c3ccc(Cl)cc3)nc2-c2ccccc2N1	TGI	6.8 µM
O=C1c2ccccc2C(=O)c2sc(Nc3ccc([N+](=O)[O-])cc3)nc21	TGI	12.2 µM
COc1cccc(CCn2c(N)c(C#N)c3ccc([N+](=O)[O-])cc3c2=O)c1	TGI	> 46.4 µM

GET /values?readout=TGI&item= C[C@@H](Oc1cc(-c2cnn(C3CCNCC3)c2)cnc1N)c1c(Cl)cc(F)cc1Cl
12.1 µM

GET /values?readout=TGI&item= CC1OC(CC2C=CCc3c(O)c4c(c(O)c32)C(=O)c2ccccc2C4=O)CC(NC(=O)C(F)(F)F)C1O (stereo not given)
22.2 µM

GET /values?readout=TGI&item= Cc1ccc2c(c1)C(O)(c1ccccc1)CCS2 (stereo not given)
> 100 µM

GET /values?readout=TGI&item= CN(C(=O)c1ccccc1)c1ccc2c(c1)C(=O)c1ccccc1C2=O
> 100 µM

GET /values?readout=TGI&item= CCOC(=O)c1cc2c(n1Cc1cc(OC)cc(OC)c1)-c1oncc1CC2
> 100 µM

GET /values?readout=TGI&item= C=C1C(=O)O[C@H]2[C@H]1CC/C(COC(=O)/C=C\C(=O)NCc1ccc(Cn3c(=O)sn(-c4ccc(Cl)cc4)c3=O)cc1)=C\CC[C@@]1(C)O[C@@H]21
1.43 µM

GET /values?readout=TGI&item= CN1CCN(Cc2ccccc2)CC1CC#N (stereo not given)
> 100 µM

---

# Tested on: SK-MEL-5 melanoma
# protocol text: NCI tumour cell line growth inhibition, 48 h
measurement label: log10 of TGI (log10 of the value in µM)
Please keep in mind that the values are log10 of TGI expressed in µM.

compound	assay system	result
O=C(Nc1cc2cc([N+](=O)[O-])ccc2oc1=O)c1cccs1	SK-MEL-5 melanoma	1.65
COc1ccc2[nH]c3c(O)c(-c4c(C)cc5c([nH]c6ccc(OC)cc65)c4O)c(C)cc3c2c1	SK-MEL-5 melanoma	0.91
C(=C\c1ccc(OCC2CO2)cc1)/C1=NCOC1 (stereo not drawn)	SK-MEL-5 melanoma	1.42
CC[Si](CC)(CC)OC1[C@@H](O[Si](CC)(CC)CC)[C@@H](CNC(=O)NC)O[C@H]1n1cnc2c(NC(=O)Nc3ccccc3)ncnc21 (stereo partly drawn)	SK-MEL-5 melanoma	0.60
CC(C)=CCOc1ccc(-c2coc3cc4c(c(O)c3c2=O)C=CC(C)(C)O4)cc1	SK-MEL-5 melanoma	-0.03
CCC(=C(c1ccc(OCCN2CCCC2)cc1)c1ccc(OCCN2CCCC2)cc1)c1ccc(Cl)cc1	SK-MEL-5 melanoma	0.03
O=C1c2c(O)cccc2Cc2cc(CO)cc(O)c21	SK-MEL-5 melanoma	0.57
C1=C\CCCCN2CC[C@H]3[C@H](CCCC/C=C\CCCN4C[C@@H](CCCCC/1)C[C@@H]3C4)C2	SK-MEL-5 melanoma	1.22

# next compound below
GET /values?readout=log10 of TGI&item= CCOC(=O)CCc1ccc(NC(=O)/C=C/c2ccc([N+](=O)[O-])o2)cc1
0.54
